Test system: Mycobacterium tuberculosis Erdman (autoluminescent)
Experiment: GRinf, maximum normalised growth rate inhibition (three-drug combination) (unitless (-1 to 1)); higher = less effect (negative = killing)
Details: in vitro model: acidic pH 5.7; time point: terminal (~4-5 doublings, model-specific)
Overview of recorded GRinf for various compounds

{"COMPOUND": "CC(C)/N=c1\\cc2n(-c3ccc(Cl)cc3)c3ccccc3nc-2cc1Nc1ccc(Cl)cc1 [clofazimine] + CC[C@@H](CO)NCCN[C@@H](CC)CO [ethambutol] + NC(=O)c1cnccn1 [pyrazinamide]", "GRinf": -0.232}
{"COMPOUND": "COc1c(N2C[C@@H]3CCCN[C@@H]3C2)c(F)cc2c(=O)c(C(=O)O)cn(C3CC3)c12 [moxifloxacin] + O=[N+]([O-])c1cn2c(n1)OC[C@@H](OCc1ccc(OC(F)(F)F)cc1)C2 [pretomanid] + CO[C@H]1/C=C/O[C@@]2(C)Oc3c(C)c(O)c4c(O)c(c(/C=N/N5CCN(C6CCCC6)CC5)c(O)c4c3C2=O)NC(=O)/C(C)=C\\C=C\\[C@H](C)[C@H](O)[C@@H](C)[C@@H](O)[C@@H](C)[C@H](OC(C)=O)[C@@H]1C [rifapentine]", "GRinf": -0.106}
{"COMPOUND": "O=[N+]([O-])c1cn2c(n1)OC[C@@H](OCc1ccc(OC(F)(F)F)cc1)C2 [pretomanid] + NC(=O)c1cnccn1 [pyrazinamide] + CO[C@H]1/C=C/O[C@@]2(C)Oc3c(C)c(O)c4c(O)c(c(/C=N/N5CCN(C)CC5)c(O)c4c3C2=O)NC(=O)/C(C)=C\\C=C\\[C@H](C)[C@H](O)[C@@H](C)[C@@H](O)[C@@H](C)[C@H](OC(C)=O)[C@@H]1C [rifampicin]", "GRinf": -0.228}
{"COMPOUND": "CC[C@@H](CO)NCCN[C@@H](CC)CO [ethambutol] + NC(=O)c1cnccn1 [pyrazinamide] + CO[C@H]1/C=C/O[C@@]2(C)Oc3c(C)c(O)c4c(O)c(c(/C=N/N5CCN(C)CC5)c(O)c4c3C2=O)NC(=O)/C(C)=C\\C=C\\[C@H](C)[C@H](O)[C@@H](C)[C@@H](O)[C@@H](C)[C@H](OC(C)=O)[C@@H]1C [rifampicin]", "GRinf": -0.218}
{"COMPOUND": "CC[C@@H](CO)NCCN[C@@H](CC)CO [ethambutol] + O=[N+]([O-])c1cn2c(n1)OC[C@@H](OCc1ccc(OC(F)(F)F)cc1)C2 [pretomanid] + NC(=O)c1cnccn1 [pyrazinamide]", "GRinf": -0.384}
{"COMPOUND": "COc1nc2ccc(Br)cc2cc1[C@@H](c1ccccc1)[C@@](O)(CCN(C)C)c1cccc2ccccc12 [bedaquiline] + CC(=O)NC[C@H]1CN(c2ccc(N3CCOCC3)c(F)c2)C(=O)O1 [linezolid] + CO[C@H]1/C=C/O[C@@]2(C)Oc3c(C)c(O)c4c(O)c(c(/C=N/N5CCN(C)CC5)c(O)c4c3C2=O)NC(=O)/C(C)=C\\C=C\\[C@H](C)[C@H](O)[C@@H](C)[C@@H](O)[C@@H](C)[C@H](OC(C)=O)[C@@H]1C [rifampicin]", "GRinf": -0.249}
